Test system: MST1;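 note: KINOMEscan kinase panel screen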
Construct: gene STK4
stated.conditions: concentration: 1 μM,replicates: in singlicate; n = 1
test.readout: %Inh (%)
Respond with the bare value in %.

Recorded results for 2 molecules are shown here.
# chem.smiles, measured.number
data = [
    ("Cl.Cl.NC[C@H](CC1CCCCC1)NC(=O)c1ccc(-c2ccnc3[nH]ccc23)s1", 0),
    ("CN(c1cccc(CNc2nc(Nc3ccc4c(c3)CC(=O)N4)ncc2C(F)(F)F)c1)S(C)(=O)=O", 0),
]

IN: Identify %Inh associated with the molecule CCn1c(-c2nonc2N)nc2cncc(CNC3CCNCC3)c21.Cl
OUT: 19

IN: Identify %Inh associated with the molecule OCCn1cc(-c2cnc3nnn(Cc4ccc5ncccc5c4)c3n2)cn1
OUT: 0
